Below, each entry is listed with its recorded mean fluorescence intensity.
Target: his-labeled human IL-13 (immunogen A) (human) (UniProt P35225)
Experiment: FACS blocking, biotin-IL-13 on IL-13Ra1/IL-4Ra HEK293 cells; antibody at 0.002 nM
Lab note: record just the number, no unit beside it.

{"binder": "28A2E11 (lead antibody, mouse hybridoma) (antibody, V domains shown, Mouse monoclonal antibody purified from hybridoma supernatant on Protein G) VH: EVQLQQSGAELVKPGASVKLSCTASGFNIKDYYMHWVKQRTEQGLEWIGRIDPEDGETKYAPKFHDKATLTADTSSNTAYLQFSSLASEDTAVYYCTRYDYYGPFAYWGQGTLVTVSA VL: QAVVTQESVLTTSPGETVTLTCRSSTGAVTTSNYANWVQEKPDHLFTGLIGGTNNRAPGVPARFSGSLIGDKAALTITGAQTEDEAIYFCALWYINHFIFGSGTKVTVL", "mean fluorescence intensity": 74.7}

Which measured mean fluorescence intensity value corresponds to c29D9H8 (mouse-human chimeric IL-13 antibody) (antibody, V domains shown) VH: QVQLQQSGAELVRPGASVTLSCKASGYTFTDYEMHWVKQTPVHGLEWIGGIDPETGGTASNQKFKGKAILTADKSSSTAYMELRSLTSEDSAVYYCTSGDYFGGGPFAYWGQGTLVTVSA VL: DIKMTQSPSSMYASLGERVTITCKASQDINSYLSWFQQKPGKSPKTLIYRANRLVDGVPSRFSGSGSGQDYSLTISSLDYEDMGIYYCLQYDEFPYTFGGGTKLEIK ?
105
